melting point reference
Measured property: melting point

1) CC(=O)c1ccc(SC#N)c([N+](=O)[O-])c1 [VI, 4-Acetyl-2-nitrophenyl thiocyanate]    96 to 98 °C
2) N#CSc1ccc(C(=O)c2ccccc2)cc1[N+](=O)[O-] [VII, 4-Benzoyl-2-nitrophenyl thiocyanate]    104 to 106 °C
3) CC(C)Nc1ncnc(SC#N)c1[N+](=O)[O-]    96 to 98 °C
4) N#CSc1ccc(C(=O)O)cc1[N+](=O)[O-]    220 to 224 °C

###

Measured property: melting point

1. N#CSc1ccc(C#N)cc1[N+](=O)[O-]    143 to 145 °C
2. N#CSc1cc(SC#N)c([N+](=O)[O-])cc1[N+](=O)[O-]    78 to 80 °C
3. N#CSc1ccc(C(F)(F)F)cc1[N+](=O)[O-]    78 to 81 °C
4. COc1ncnc(SC#N)c1[N+](=O)[O-]    54 to 56 °C

###

System: M. tuberculosis "non-culturable" cells
Type: cell-based, Mycobacterium tuberculosis
Details: inhibitor 10 µg/ml, time 36 days
Mark false for MPN, logarithmic transformation of cell concentration (cells/ml) values under 6, and true for everything at or above.

1) CCOC(=O)c1ccc(SC#N)c([N+](=O)[O-])c1 [X]    false
2) COC(=O)c1ccc(SC#N)c([N+](=O)[O-])c1 [IX]    false
3) N#CSc1ccc(C#N)cc1[N+](=O)[O-] [V, 3-Nitro-4-thiocyanobenzonitryl]    false
4) N#CSc1cc(SC#N)c([N+](=O)[O-])cc1[N+](=O)[O-] [III, 1,5-Dinitro-2,4-dithiocyanatobenzene]    true
5) N#CSc1ccc(C(F)(F)F)cc1[N+](=O)[O-] [IV]    false

###

Tested on: M. tuberculosis "non-culturable" cells
Assay type: cell-based, Mycobacterium tuberculosis
Details: inhibitor 10 µg/ml, time 33 days
Measured property: MPN, logarithmic transformation of cell concentration (cells/ml)

1) COC(=O)c1ccc(SC#N)c([N+](=O)[O-])c1    5.66
2) N#CSc1ccc(C#N)cc1[N+](=O)[O-]    5.66
3) CCOC(=O)c1ccc(SC#N)c([N+](=O)[O-])c1    5.38
4) CC(=O)c1ccc(SC#N)c([N+](=O)[O-])c1 [VI, 4-Acetyl-2-nitrophenyl thiocyanate]    5.38
5) N#CSc1cc(SC#N)c([N+](=O)[O-])cc1[N+](=O)[O-]    6.38
6) N#CSc1ccc(C(=O)c2ccccc2)cc1[N+](=O)[O-] [VII, 4-Benzoyl-2-nitrophenyl thiocyanate]    6.18
7) N#CSc1ccc(C(F)(F)F)cc1[N+](=O)[O-]    5.66

###

System tested: Rpf Sm (Micrococcus luteus, UniProt O86308)
Construct: His-tag (inferred from the pET19b vector and the Ni2+-chelation purification); made in house; host or cells: E. coli HSM174 (DE3)
Sequence (O86308 42-134): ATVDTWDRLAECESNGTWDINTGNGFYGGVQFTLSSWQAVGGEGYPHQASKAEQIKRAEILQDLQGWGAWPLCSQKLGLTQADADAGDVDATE
Experimental details: Muralytic activity of Rpf, 4-MUF-3-NAG hydrolysis
Format: biochemical, M. luteus
Details: pH 6.0, 3 hours at 37°C; NI = no inhibition was observed; read-out: 4-MUF-3-NAG hydrolysis IC50, Rpf Sm (converted)
Measured property: IC50 (µM)

1. N#CSc1cc(SC#N)c([N+](=O)[O-])cc1[N+](=O)[O-] [III, 1,5-Dinitro-2,4-dithiocyanatobenzene]    4.25
2. COc1ncnc(SC#N)c1[N+](=O)[O-] [I]    25
3. N#CSc1ccc(C(F)(F)F)cc1[N+](=O)[O-] [IV]    21.4
4. CCOC(=O)c1ccc(SC#N)c([N+](=O)[O-])c1 [X]    10.3

Origin of the recorded values: paper PMC2790607
